Data origin, for the record: PubChem BioAssay (NCI)

// reported growth inhibition per item
Assay: NCI Yeast Anticancer Drug Screen. Data for the bub3 strain (AID 167)
Conditions: S. cerevisiae bub3 mutant strain, at 50.0 µM, active compounds read high
About 79,000 compounds went through this panel and 15% of them were active in at least one assay; those are over-represented in the sample as a whole.

molecule	growth inhibition (%)
O=C(CCCN1CCC(Nc2ccccc2)(c2nnnn2C2CCCCC2)CC1)c1ccc(F)cc1	1.25
COc1cc(O)c(O)cc1C(C)(C)C	36.5
CC1=CC(=O)N(n2c(-c3ccccc3)n[nH]c2=O)C1=O	-13.2
COc1ccccc1NC(=O)NCCCCCCNC(=O)Nc1ccccc1OC	0.85
C[N+](C)(C)CCc1ccccc1	-12.9
S=C(Nc1ccccc1)Nc1ccccc1S	14.7
C=CCN(C)C(=O)CCCCCCCC1C(CCCCCCCC)C2(Cl)C(Cl)=C(Cl)C1(Cl)C2(Cl)Cl (stereo not drawn)	-1.5
CCN(CC)Cc1c(C)cccc1O	-0.45
CSc1nc(C)cc(N(C)c2ccccc2)n1	-18.2
O=[S@@]1Nc2cc(Cl)c(Cl)cc2S1	-0.05
CCCC(=O)OCCc1ccccc1	5.1
O=C(Cl)CNS(=O)(=O)c1ccccc1	6.4
COc1ccc(C2CC(=O)NC2=O)cc1OC (stereo not drawn)	1.8

----------
Assay: NCI Yeast Anticancer Drug Screen. Data for the rad50 strain (AID 155);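 also: 0% = growth of vehicle-only cultures of the same strain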
Conditions: S. cerevisiae rad50 strain growth inhibition; at 50.0 µM; active compounds read high
The panel holds about 79,000 compounds, 15% with a hit somewhere; the sample as a whole holds those more often.

compound	growth inhibition [%]
CCCNC=O	-6.8
N=c1ccccn1CC(O)COc1ccccc1 (configuration not stated)	-11.2
CCC(c1ccc(OCc2ccccc2)cc1)c1cc2c(cc1OCCO)OCO2 (configuration not stated)	23.7
Cc1ccc2cccc([N+](=O)[O-])c2n1	15.8
N#CC(=S)Nc1ccc(Cl)c(Cl)c1	-4.8
S=C(Cc1ccccc1)Nc1ccccc1	12.1
COc1ccc(Cc2cc(OC)c(OC)c(OC)c2)cc1	13.2

----------
Test: NCI Yeast Anticancer Drug Screen. Data for the mlh1 rad18 strain (AID 175)
Settings: S. cerevisiae mlh1 rad18 strain growth inhibition; at 50.0 µM; active compounds read high
Compounds without any hit were thinned out: in the full panel of roughly 79,000, 15% have a hit.
// values below are reported growth inhibition
measurement-kind: growth inhibition (%)

compound	unit-spec	observed-measurement
COC1=C(c2ccccc2)P(=O)(Cc2ccccc2)C2CCCC12 (stereo unspecified)	%	-17.3
CCOc1ccccc1NC(=O)C(Br)C(Br)c1ccccc1 (stereo unspecified)	%	42.3
CNc1ccc(Cl)cc1S(=O)(=O)c1ccccc1[N+](=O)[O-]	%	-7.05
CN(C)CCN1CCCN(C)CC1	%	5.4
COc1ccc2c3c(n(Cc4ccccc4)c(=O)c2c1)-c1cc(OC)c(OC)cc1C3C (stereo unspecified)	%	23.1
N#CC(C#N)=CC(C#N)C#N	%	-11.7
COc1cc(C2OCCO2)ccc1O	%	-11
O=C(O)c1c(-c2ccccc2)c(=O)[nH]c2ccccc12	%	11.1
O=C(CCC(=O)Nc1ccc(Cl)c(Cl)c1)Nc1ccc(Cl)c(Cl)c1	%	63
CCOC(=O)CCC(NC(=O)c1ccc([N+](=O)[O-])cc1)C(=O)OCC (stereo unspecified)	%	26.1
CC(C)(C)c1cc(CN2CCOCC2)cc(C(C)(C)C)c1O	%	14.3
O=C(NC(=O)c1ccccc1[N+](=O)[O-])Nc1ccc(Oc2ncc(Cl)cn2)c(C(F)(F)F)c1	%	-54.6
COC(=O)c1nc(=S)[nH]c(C(=O)OC)c1C(=O)/C=C/c1ccccc1	%	11.8
C[N+](C)(C)CCc1ccccc1	%	16.1
COc1ccc2c(c1)SC1=NNC(=O)CN12	%	-22.9
O=C1C=CC(n2cc(F)c(=O)[nH]c2=O)O1 (stereo unspecified)	%	-43.9
CC1=CC=CC(C)(C)C(=O)C1=O	%	-15.4
CCOC(=O)/C(C)=C(/O)C(=O)OCC	%	-27.9
O=C1Nc2c(cccc2-c2ccccc2)C(=O)C1(O)c1ccccc1 (stereo unspecified)	%	-3.95
CCCC[N+](C)(C)CC[N+](C)(C)CCCC	%	-16.2
CCOC(=O)N1CCN(C(=O)OCC)C(C)C1 (stereo unspecified)	%	-8.6
Cc1c(CCOC=O)c(=O)[nH]c2nncn12	%	2.65
CS/C(=C\c1ccc2ccccc2[n+]1C)N1CCN(CCCO)CC1	%	38.1
CCOc1ccc(CC(=O)Nc2cc([N+](=O)[O-])ccc2NCCN(CC)CC)cc1	%	-3.85
CCCCCCCCCCCCCCCCCC/C(CC)=N/Nc1ccc([N+](=O)[O-])cc1[N+](=O)[O-]	%	5.55
S=c1nn[nH]n1C1CCCCC1	%	9.95
COc1cc([C@@H]2c3cc4c(cc3[C@H](O)[C@H]3COC(=O)[C@@H]23)OCO4)cc(OC)c1OC	%	16.2
CC1=CC(=O)/C(=C/n2c(=S)[nH]c3ccc([N+](=O)[O-])cc32)C(=O)O1	%	-46.3
Nc1ccc(C(=O)NN2C(=O)C(Cl)C2c2ccc(O)cc2)cc1 (stereo unspecified)	%	-25.6
CCOC(CCCl)c1ccccc1 (stereo unspecified)	%	-10.3
OC(CCl)(CCl)CCl	%	18.8
Cc1cc(-c2ccccc2)nc(Nc2cc3ccccc3[nH]2)n1	%	0.4
CC(C)(C)CC(C)(C)N1CNC(=S)NC1	%	16.8
O=NN(CC(=O)O)c1ccc2ccccc2c1	%	-2.85
COc1cccc(NC(=S)Nn2c(C)nc3ccccc3c2=O)c1	%	-28.6
C#CC(O)C(CC)CCCC (stereo unspecified)	%	13.8
COC(=O)/C(N=Nc1cccc(C)c1)=C(\C)O	%	-2.7
Cc1ccnc(-n2c(N)cc(=O)[nH]c2=S)c1	%	5.55
Cn1c2ccccc2c2c3ccc[n+](C)c3ccc21	%	2.1
Cn1c2ccccc2c2nc3ccccc3c(Cl)c21	%	-31.9
Cc1cc(C)c(C#N)c(SC(C(=O)NC(C)(C)C)c2ccccc2)n1 (stereo unspecified)	%	-14.3
Cc1nc2c(N)cc(Cl)cc2[nH]1	%	7.75
CN(C)CC1CCC2=C(C1=O)C(c1ccccc1)C1=C(CCC(CN(C)C)C1=O)O2 (stereo unspecified)	%	3.7
Cc1cc2c(=O)cc(-c3ccncc3)oc2c(C(=O)O)c1C	%	-5.5
C=C(Br)CNC(=O)c1ccccc1	%	5.2
Cc1cc(N=Nc2ccccc2)c2cccnc2c1N	%	14.7
COc1ccc(/C=C2\N=C(c3ccc([N+](=O)[O-])cc3)OC2=O)cc1	%	18.4
CN(C)C(=N)N	%	-18.4
O=C(O)c1cc(=O)[nH]c(=O)[nH]1	%	-21.2
NC(=O)Cc1ccccn1	%	1.4
Cc1ccc(OCc2ccccc2)n[n+]1[O-]	%	-3
